# assayTarget: human P2X7 (Homo sapiens (Human), UniProt Q99572)
# Sequence (Q99572 whole entry): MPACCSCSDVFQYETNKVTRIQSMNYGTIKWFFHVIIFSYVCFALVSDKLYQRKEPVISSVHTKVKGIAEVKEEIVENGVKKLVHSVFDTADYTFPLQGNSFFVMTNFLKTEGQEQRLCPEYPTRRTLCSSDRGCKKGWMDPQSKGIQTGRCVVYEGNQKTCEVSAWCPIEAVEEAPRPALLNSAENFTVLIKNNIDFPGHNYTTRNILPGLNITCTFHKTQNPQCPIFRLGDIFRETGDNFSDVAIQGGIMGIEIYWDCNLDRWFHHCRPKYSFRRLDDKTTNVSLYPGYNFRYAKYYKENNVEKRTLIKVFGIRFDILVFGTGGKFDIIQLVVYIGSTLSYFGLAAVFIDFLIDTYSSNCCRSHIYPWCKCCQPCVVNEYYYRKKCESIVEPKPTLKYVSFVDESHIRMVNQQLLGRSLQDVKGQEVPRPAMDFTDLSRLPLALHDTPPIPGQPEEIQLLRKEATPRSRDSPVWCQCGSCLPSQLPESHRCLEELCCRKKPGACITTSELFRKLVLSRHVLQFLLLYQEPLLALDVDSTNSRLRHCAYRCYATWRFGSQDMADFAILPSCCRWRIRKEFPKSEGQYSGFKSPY
# assayName: Human P2X7 functional assay (Ca2+ influx, Fluo-4, FDSS)
# cond: antagonistic activity with respect to the human P2X7 receptor; BzATP final concentration 80 microM
pIC50: −log10 of the molar value.
metricName: pIC50

Please go through the list and note pIC50 for each molecule.
1. O=C(NCc1ccc(Cl)cc1F)[C@H]1CC[C@H](O)c2ncccc21
2. N[C@]1(CO)CC[C@@](F)(C(=O)NCc2ccc(Cl)cc2Cl)c2cccnc21 (relative stereo)
3. O=C(NCc1cccc(F)c1F)[C@]1(F)CC[C@H](O)c2ncccc21
4. O=C(N[C@H]1CCCc2ccccc21)[C@]1(F)CC[C@H](O)c2ncccc21

Data returned:
6.00 to 6.52
> 7.30
6.52 to 7.00
6.00 to 6.52

// each molecule listed below needs its pIC50
1. O=C(NCc1c(F)cc(Cl)cc1Cl)[C@]1(F)CC[C@@H](O)c2ncccc21
2. O=C(NCc1ccc(Cl)cc1Cl)[C@@]1(F)CC[C@](O)(CN2CC(O)C2)c2ncccc21

Data returned:
["> 7.30", "> 7.30"]

Value sought for every listed molecule: pIC50.
1. O=C1CC[C@@](F)(C(=O)NCc2cccc(C(F)(F)F)c2Cl)c2cccnc21
2. O=C(NCc1c(F)cc(Cl)cc1Cl)[C@@H]1CC[C@H](O)c2ncccc21
3. O=C(NCc1ccc(F)c(F)c1F)[C@]1(F)CC[C@H](O)c2ncccc21
4. C[C@@]1(O)CC[C@@](F)(C(=O)NCc2ccc(Cl)cc2Cl)c2cccnc21
5. O=C(NCc1c(Cl)cc(F)cc1CO)[C@]1(F)CC[C@H](O)c2ncccc21
6. CNCC1(O)CCC(F)(C(=O)NCc2c(C)cc(Cl)cc2Cl)c2cccnc21 (centres unmarked)

Data returned:
1. > 7.30
2. > 7.30
3. > 7.30
4. 6.52 to 7.00
5. > 7.30
6. > 7.30
